FYI, the data here is from PubChem BioAssay (EPA / NIEHS).

assay: CCTE_Mundy_HCI_Cortical_NOG_NeuronCount: CCTE's Neurite Outgrowth Assay in rat cortical cells for Neuron Count, Mundy Lab (AID 2284236);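 further: neurons counted by imaging betaIII-tubulin and Hoechst stained cortical cells; cells exposed to compound for about 48 hours before fixation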
Inconclusive results are not listed. Calls of active or inactive are those of the source. How the source made its calls: active means hit-call score of the fitted dose curve at least 0.9, where 1 is the maximum; inconclusive means response in the unintended direction; inactive means score below 0.9.
In this exercise, the only acceptable responses are active, inactive

Incoming: Assay result, entry CO/C=C(/C(=O)OC)c1ccccc1COc1cccc(C(F)(F)F)n1 — outcome?
Outgoing: active

Incoming: Assay result, entry ClC1=C(Cl)[C@]2(Cl)[C@@H]3[C@@H](Cl)[C@H]4O[C@H]4[C@@H]3C1(Cl)C2(Cl)Cl — outcome?
Outgoing: active

Incoming: Assay result, entry ClC1=C(Cl)[C@]2(Cl)[C@@H]3[C@@H]4C[C@@H]([C@H]5O[C@@H]45)[C@@H]3[C@@]1(Cl)C2(Cl)Cl — outcome?
Outgoing: active

Incoming: Assay result, entry O=S(=O)(O)C(F)(F)C(F)(F)C(F)(F)C(F)(F)C(F)(F)C(F)(F)F — outcome?
Outgoing: inactive

Incoming: Assay result, entry O=S(=O)(O)C(F)(F)C(F)(F)C(F)(F)C(F)(F)F — outcome?
Outgoing: inactive

Incoming: Assay result, entry CCOP(=S)(OCC)SCSC(C)(C)C — outcome?
Outgoing: active
